Hi there, I'd appreciate the recorded pIC50 for every entry that follows.
molecular target: p53-MDM2 interaction (GST-MDM2 protein aa 23-117 / biotinylated p53 wt peptide) (Homo sapiens (Human), UniProt Q00987); assay: Mdm2-p53 Inhibition AlphaScreen; settings: GST-MDM2 (aa 23-117) / biotinylated p53 wt peptide
Sequence (Q00987 23-117): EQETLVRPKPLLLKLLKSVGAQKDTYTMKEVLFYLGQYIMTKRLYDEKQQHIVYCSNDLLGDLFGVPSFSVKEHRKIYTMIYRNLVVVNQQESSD
Hey, just a heads up that pIC50 is the negative log base 10 of the concentration in molar.

stdin: // fetch pIC50 given entry CCN1[C@H]2CCn3c(nc4cc(C(=O)O)ccc43)[C@H]2[C@H](c2cccc(Cl)c2F)[C@]12C(=O)Nc1cc(Cl)ccc12
stdout: 8.15

stdin: Please give measured pIC50 of the following entry: CCOc1cccc(CN2[C@H]3Cn4c(nc5cc(C(=O)OC)ccc54)[C@H]3[C@H](c3cccc(Cl)c3F)[C@]23C(=O)Nc2cc(Cl)ccc23)c1
stdout: 8.30

stdin: Recall and state the measured pIC50 for Cc1c(C(=O)O)ccc2c1nc1n2C[C@H]2[C@@H]1[C@H](c1cccc(Cl)c1F)[C@]1(C(=O)Nc3cc(Cl)ccc31)N2CC1CC1 [Ib-189] .
stdout: 8.52

stdin: Return pIC50 for the following molecule: Nc1ccc2c(c1)nc1n2CC[C@H]2[C@@H]1[C@H](c1cccc(Cl)c1F)[C@]1(C(=O)Nc3cc(Cl)ccc31)N2CC1CC1
stdout: 7.57

stdin: Supply recorded pIC50 for O=C1Nc2cc(Cl)ccc2[C@@]12[C@@H](c1cccc(Cl)c1F)[C@@H]1c3nc4cc(CO)ccc4n3CC[C@@H]1N2CC1CC1 here.
stdout: 7.70

stdin: Annotate the molecule Cc1c(C(=O)O)ccc2c3n(nc12)[C@@H]1[C@H](C3)N(CC2CC2)[C@@]2(C(=O)Nc3cc(Cl)ccc32)[C@H]1c1cccc(Cl)c1F with its measured pIC50.
stdout: 8.70

src = patent US10717742B2
